Where do the numbers come from? From paper PMC10247784.

Answer each item with its documented RLU.
- Assayed target: human TAS2R1 (Homo sapiens, UniProt Q9NYW7)
- Construct: expressed in transfected cells; host or cells: HEK293T-Gα16gust44
- Sequence (Q9NYW7 whole entry): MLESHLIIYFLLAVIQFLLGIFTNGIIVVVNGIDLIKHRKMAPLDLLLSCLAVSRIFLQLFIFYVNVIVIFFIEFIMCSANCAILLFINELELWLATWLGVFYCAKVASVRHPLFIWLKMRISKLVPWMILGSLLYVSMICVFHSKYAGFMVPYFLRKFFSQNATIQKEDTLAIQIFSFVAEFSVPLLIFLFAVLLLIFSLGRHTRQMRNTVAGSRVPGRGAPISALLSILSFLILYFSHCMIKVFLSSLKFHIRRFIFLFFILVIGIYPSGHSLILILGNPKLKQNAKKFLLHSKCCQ
- Measurement protocol: Calcium imaging assay (FLIPR), HEK293T-Gα16gust44 cells transfected with human TAS2R1
- Format: cell-based
- Condition set: Time 78.796 s
Supply the numeric figure in RLU, leaving out any unit text.

Lab note: C[C@H](CCC(=O)O)[C@H]1CC[C@H]2[C@@H]3[C@@H](O)C[C@@H]4C[C@H](O)CC[C@]4(C)[C@H]3CC[C@]12C [Ursodeoxycholic Acid, ursodeoxycholic acid] gave RLU of 593.169

For record C[C@H](CCC(=O)O)[C@H]1CC[C@H]2[C@@H]3[C@H](O)C[C@@H]4C[C@H](O)CC[C@]4(C)[C@H]3CC[C@]12C [Chenodeoxycholic Acid, chenodeoxycholic acid] the listed RLU is 815.084

Short answer for C[C@H](CCC(=O)O)[C@H]1CC[C@H]2[C@@H]3[C@H](O)C[C@@H]4C[C@H](O)CC[C@]4(C)[C@H]3C[C@H](O)[C@]12C [Cholic Acid, cholic acid] : RLU was 701.138

For this compound ( C[C@H](CCC(=O)O)[C@H]1CC[C@H]2[C@@H]3CC[C@@H]4C[C@H](O)CC[C@]4(C)[C@H]3CC[C@]12C [Lithocholic Acid, lithocholic acid] ), measured RLU is 889.618
